Ref: patent US10213409B2

# Tested on: Human umbilical vein endothelial cells (HUVECs), tumour type activated (Tum)
# Method Summary: Proliferation Assay - Activated Endothelium (MTT)
# Assay type: cell-based
# Measurement Parameters: Homo sapiens, HUVEC; tumour type activated endothelial cells
Entries and their IC50
Experimental Endpoint: IC50

COc1cc(C(=O)c2c(NCC(=O)O)oc3c(O)c(OC)ccc23)cc(OC)c1OC = 100 to 1000 nM
COc1cc(C(=O)c2c(NCCNC(=N)N)oc3c(O)c(OC)ccc23)cc(OC)c1OC = 100 to 1000 nM
COC(=O)CN(C)Cc1oc2c(O)c(OC)ccc2c1C(=O)c1cc(OC)c(OC)c(OC)c1 = 1 to 10 nM
COc1cc(C(=O)c2c(N(C)C)oc3c(O)c(OC)ccc23)cc(OC)c1OC = 1 to 10 nM
COc1cc(C(=O)c2c(C)oc3c(O)c(OC)ccc23)cc(OC)c1O = 10 to 100 nM
COc1cc(C(=O)c2coc3c(N)c(OC)ccc23)cc(OC)c1OC = 1 to 10 nM
COc1ccc2c(C(=O)c3cc(OC)c(OC)c(OC)c3)c(O)oc2c1 [Example 30, reference compound] = 100 to 1000 nM
COC(=O)CNc1oc2c(O)c(OC)ccc2c1C(=O)c1cc(OC)c(OC)c(OC)c1 = 1 to 10 nM

====

Entries and their pIC50
# Test system: Human umbilical vein endothelial cells (HUVECs), tumour type activated (Tum)
# Method Summary: Proliferation Assay - Activated Endothelium (MTT)
# Format: cell-based
# Measurement Parameters: Homo sapiens, HUVEC; tumour type activated endothelial cells
pIC50: −log10 of the molar value.
Experimental Endpoint: pIC50

COc1cc(C(=O)c2c(NCCN(C)C)oc3c(O)c(OC)ccc23)cc(OC)c1OC [Example 21] = 7.00 to 8.00
COc1ccc2c(C(=O)c3cc(OC)c(OC)c(OC)c3)c[nH]c2c1 [Comparator H, reference compound] = 8.00 to 9.00
COc1cc(C(=O)c2coc3c(O)c(OC)ccc23)cc(OC)c1OC [Example 6] = 7.00 to 8.00
COc1cc(C(=O)c2c(CN(C)C)oc3c(O)c(OC)ccc23)cc(OC)c1OC [Example 34] = 8.00 to 9.00
COc1ccc2c(C(=O)c3c(F)c(F)c(F)c(F)c3F)coc2c1O [Example 53] = < 6.00
COc1cc(C(=O)c2c(SC)oc3c(O)c(OC)ccc23)cc(OC)c1OC [Example 9] = 9.00 to 10.00
COc1cc(C(=O)c2c(NCCS(N)(=O)=O)oc3c(O)c(OC)ccc23)cc(OC)c1OC [Example 45] = 8.00 to 9.00

====

# Tested on: Human umbilical vein endothelial cells (HUVECs), tumour type activated (Tum)
# Method Summary: Proliferation Assay - Activated Endothelium (MTT)
# Assay type: cell-based
# Measurement Parameters: Homo sapiens, HUVEC; tumour type activated endothelial cells
Experimental Endpoint: IC50

COc1cc(C(=O)c2c(NN)oc3c(O)c(OC)ccc23)cc(OC)c1OC [Example 10] = 0.001 to 0.01 µM
COc1ccc2c(C(=O)c3cc(OC)c(OC)c(OC)c3)c(Br)oc2c1 [Example 3, reference compound] = 0.1 to 1 µM
COc1cc(C(=O)c2c(C)sc3c(O)c(OC)ccc23)cc(OC)c1OC [Example 42] = 0.0001 to 0.001 µM
COc1ccc2c(C(=O)c3cc(OC)c(OC)c(OC)c3)coc2c1 [Example 5, reference compound] = 0.01 to 0.1 µM
COc1cc(C(=O)c2c(CN3CCN(C)CC3)oc3c(O)c(OC)ccc23)cc(OC)c1OC [Example 37] = 0.01 to 0.1 µM
COc1ccc2c(C(=O)c3cc(OC)c(OC)c(OC)c3)c(C)sc2c1 [Example 51, reference compound] = 0.001 to 0.01 µM
COc1cc(OC)cc(C(=O)c2coc3c(O)c(OC)ccc23)c1 [Example 52] = 0.1 to 1 µM
CNc1oc2c(O)c(OC)ccc2c1C(=O)c1cc(OC)c(OC)c(OC)c1 [Example 18] = 0.001 to 0.01 µM

====

# System: Human umbilical vein endothelial cells (HUVECs), tumour type activated (Tum)
# Method Summary: Proliferation Assay - Activated Endothelium (MTT)
# Format: cell-based
# Measurement Parameters: Homo sapiens, HUVEC; tumour type activated endothelial cells
# Procedure: Proliferation Assay—Activated Endothelium: Cells were cultured overnight at 37° C. 5% CO2. Medium was subsequently replaced with fresh medium including the compound or negative control. Cells were cultured for a period of 48 hrs. An MTT assay was performed to measure changes in cell numbers. Briefly, 20 μl of MTT reagent was added to cells containing 100 μl of EGM2 and incubated at 37° C. for 2 hours.
Entries and their IC50
Experimental Endpoint: IC50

COc1ccc(/C=C\c2cc(OC)c(OC)c(OC)c2)cc1O [Comparator A, reference compound] = 1 to 10 nM
COC(=O)c1oc2c(O)c(OC)ccc2c1C(=O)c1cc(OC)c(OC)c(OC)c1 = 1 to 10 nM
COc1cc(C(=O)c2c(C)[nH]c3c(O)c(OC)ccc23)cc(OC)c1OC = 0.01 to 0.1 nM
COc1cc(C(=O)c2c(C)oc3c(O)c(OC)ccc23)cc(OC)c1OC = 0.1 to 1 nM
COc1cc(C(=O)c2c(Cn3ccnc3)oc3c(O)c(OC)ccc23)cc(OC)c1OC = 1 to 10 nM
C#Cc1oc2c(O)c(OC)ccc2c1C(=O)c1cc(OC)c(OC)c(OC)c1 = 1 to 10 nM
COc1ccc(/C=C\c2cc(OC)c(OC)c(OC)c2)cc1OP(=O)(O)O [Comparator B, reference compound] = 1 to 10 nM
COc1cc(C(=O)c2c(Nc3cccnc3)oc3c(O)c(OC)ccc23)cc(OC)c1OC = 1 to 10 nM
COc1cc(C(=O)c2c(NCCNC(=O)OC(C)(C)C)oc3c(O)c(OC)ccc23)cc(OC)c1OC = 1 to 10 nM
CCC/C=C/c1oc2c(O)c(OC)ccc2c1C(=O)c1cc(OC)c(OC)c(OC)c1 = 1 to 10 nM
COc1cc(C(=O)c2c(N)oc3c(O)c(OC)ccc23)cc(OC)c1OC = 1 to 10 nM
COc1cc(C(=O)c2c(C)[nH]c3c(O)c(OC)ccc23)cc(OC)c1O = 1 to 10 nM
COc1cc(C(=O)c2c(Cn3nnc(N)n3)oc3c(O)c(OC)ccc23)cc(OC)c1OC = 1 to 10 nM
COc1cc(C(=O)c2c(NCCO)oc3c(O)c(OC)ccc23)cc(OC)c1OC = 1 to 10 nM
COc1cc(C(=O)c2c(CN(C)CC(=O)O)oc3c(O)c(OC)ccc23)cc(OC)c1OC = 10 to 100 nM
COc1cc(C(=O)c2c(/C=C/C(N)=O)oc3c(O)c(OC)ccc23)cc(OC)c1OC = 1 to 10 nM
COC(=O)/C=C/c1oc2c(O)c(OC)ccc2c1C(=O)c1cc(OC)c(OC)c(OC)c1 = 0.1 to 1 nM
